Assay: Bioavailability of crystalline Forms (I) and (II) in dogs
Assay type: in vivo, Beagle dogs
Details: dog, plasma, po, 3 mg/kg, Time 1 h, Dog 1, read-out: concentration in plasma of lercanidipine (S+R)
Where a name gives a salt, the structure may show the parent alone.
endpoint: concentration at 1 h (ng/mL)
State the answer as a number, implicitly in ng/mL.

Req: Item under review: COC(=O)C1=C(C)NC(C)=C(C(=O)OC(C)(C)CN(C)CCC(c2ccccc2)c2ccccc2)C1c1cccc([N+](=O)[O-])c1 (single isomer, unassigned) [Form (I), lercanidipine hydrochloride] . Reported concentration at 1 h?
Resp: 0.59

* * *

Assay: Relative bioavailability of Form (I) and Form (II) in man
Type: in vivo
Settings: human, plasma, po, 10 mg, 10 mg tablet, single dose, geom. least square mean
Structures can show the parent of a compound that is named as a salt.
endpoint: AUC(0-t) at 24 h (ng·h/mL)
Report the figure in ng·h/mL without appending any unit label.

Req: Given the entry COC(=O)C1=C(C)NC(C)=C(C(=O)OC(C)(C)CN(C)CCC(c2ccccc2)c2ccccc2)C1c1cccc([N+](=O)[O-])c1 (single isomer, unassigned) [Form (I), lercanidipine hydrochloride] , report its measured AUC(0-t) at 24 h.
Resp: 8.82

* * *

Assay: Bioavailability of crystalline Forms (I) and (II) in dogs
Format: in vivo, Beagle dogs
Settings: dog, plasma, po, 3 mg/kg, Dog 6, read-out: Cmax
Where a name gives a salt, the structure may show the parent alone.
endpoint: Cmax (ng/mL)
Numbers only here, please. The scale is ng/mL.

Req: Would you kindly share the measured Cmax for COC(=O)C1=C(C)NC(C)=C(C(=O)OC(C)(C)CN(C)CCC(c2ccccc2)c2ccccc2)C1c1cccc([N+](=O)[O-])c1 (single isomer, unassigned) [Form (II), lercanidipine hydrochloride] ?
Resp: 18.6

* * *

Experiment: Bioavailability of crystalline Forms (I) and (II) in dogs
Assay type: in vivo, Beagle dogs
Settings: dog, plasma, po, 3 mg/kg, Time 3 h, Dog 5, read-out: concentration in plasma of lercanidipine (S+R)
Structures can show the parent of a compound that is named as a salt.
endpoint: concentration at 3 h (ng/mL)
Field format: number, assumed ng/mL, no unit text.

Req: Which concentration at 3 h value belongs to COC(=O)C1=C(C)NC(C)=C(C(=O)OC(C)(C)CN(C)CCC(c2ccccc2)c2ccccc2)C1c1cccc([N+](=O)[O-])c1 (single isomer, unassigned) [Form (II), lercanidipine hydrochloride] ?
Resp: 40.6

* * *

Assay: Bioavailability of crystalline Forms (I) and (II) in dogs
Type: in vivo, Beagle dogs
Details: dog, plasma, po, 3 mg/kg, Time 1 h, Dog 3, read-out: concentration in plasma of lercanidipine (S+R)
Structures can show the parent of a compound that is named as a salt.
endpoint: concentration at 1 h (ng/mL)
Reply numerically in ng/mL, unit not repeated.

Req: Please report the recorded concentration at 1 h for COC(=O)C1=C(C)NC(C)=C(C(=O)OC(C)(C)CN(C)CCC(c2ccccc2)c2ccccc2)C1c1cccc([N+](=O)[O-])c1 (single isomer, unassigned) [Form (II), lercanidipine hydrochloride] .
Resp: 16.6

* * *

Experiment: Bioavailability of crystalline Forms (I) and (II) in dogs
Assay type: in vivo, Beagle dogs
Details: dog, plasma, po, 3 mg/kg, Dog 5, read-out: Tmax
Structures can show the parent of a compound that is named as a salt.
endpoint: Tmax (h)
Answer in h, number only, no unit symbol.

Req: Looking for the measured Tmax of COC(=O)C1=C(C)NC(C)=C(C(=O)OC(C)(C)CN(C)CCC(c2ccccc2)c2ccccc2)C1c1cccc([N+](=O)[O-])c1 (single isomer, unassigned) [Form (I), lercanidipine hydrochloride] , can you help?
Resp: 3

* * *

Experiment: Bioavailability of crystalline Forms (I) and (II) in dogs
Assay type: in vivo, Beagle dogs
Details: dog, plasma, po, 3 mg/kg, Time 6 h (last sampling time), Mean (Dog 2 not included), read-out: concentration in plasma of lercanidipine (S+R)
Experimental: A study was carried out on six Beagle dogs to evaluate the bioavailability of crystalline Forms (I) and (II). Blood samples were taken at given times and plasma concentrations of lercanidipine were determined with a stereoselective analytical method HPLC-MS/MS, according to the following working conditions; Lercanidipine was extracted from dog plasma by means of a liquid-liquid extraction with a mixture of n-hexane and ethyl ether. […]
Structures can show the parent of a compound that is named as a salt.
endpoint: concentration at 6 h (ng/mL)
API: value field is a number in ng/mL; no unit string.

Req: Data request, read-out concentration at 6 h, for COC(=O)C1=C(C)NC(C)=C(C(=O)OC(C)(C)CN(C)CCC(c2ccccc2)c2ccccc2)C1c1cccc([N+](=O)[O-])c1 (single isomer, unassigned) [Form (I), lercanidipine hydrochloride]
Resp: 8.5

* * *

Assay: Relative bioavailability of Form (I) and Form (II) in man
Assay type: in vivo
Conditions: human, plasma, po, 10 mg, 10 mg tablet, single dose, geom. least square mean, read-out: Cmax
Structures can show the parent of a compound that is named as a salt.
endpoint: Cmax (ng/mL)
Quick reminder: number only, in ng/mL, skip the unit.

Req: Would you kindly share the measured Cmax for COC(=O)C1=C(C)NC(C)=C(C(=O)OC(C)(C)CN(C)CCC(c2ccccc2)c2ccccc2)C1c1cccc([N+](=O)[O-])c1 (single isomer, unassigned) [Form (I), lercanidipine hydrochloride] ?
Resp: 3.18

* * *

Test: Bioavailability of crystalline Forms (I) and (II) in dogs
Assay type: in vivo, Beagle dogs
Conditions: dog, plasma, po, 3 mg/kg, Time 1 h, Dog 4, read-out: concentration in plasma of lercanidipine (S+R)
Counter-ions that a name gives are not always drawn.
endpoint: concentration at 1 h (ng/mL)
Enter your answer as a number in ng/mL; do not include the unit.

Req: concentration at 1 h for COC(=O)C1=C(C)NC(C)=C(C(=O)OC(C)(C)CN(C)CCC(c2ccccc2)c2ccccc2)C1c1cccc([N+](=O)[O-])c1 (single isomer, unassigned) [Form (II), lercanidipine hydrochloride] ?
Resp: 5.5

* * *

Assay: Bioavailability of crystalline Forms (I) and (II) in dogs
Type: in vivo, Beagle dogs
Conditions: dog, plasma, po, 3 mg/kg, Time 1.5 h, Dog 4, read-out: concentration in plasma of lercanidipine (S+R)
Where a name gives a salt, the structure may show the parent alone.
endpoint: concentration at 1.5 h (ng/mL)
Respond with the bare value in ng/mL.

Req: Can you share its concentration at 1.5 h? I mean this compound: COC(=O)C1=C(C)NC(C)=C(C(=O)OC(C)(C)CN(C)CCC(c2ccccc2)c2ccccc2)C1c1cccc([N+](=O)[O-])c1 (single isomer, unassigned) [Form (II), lercanidipine hydrochloride]
Resp: 35.4

* * *

Assay: Bioavailability of crystalline Forms (I) and (II) in dogs
Type: in vivo, Beagle dogs
Conditions: dog, plasma, po, 3 mg/kg, Time 1 h, Dog 5, read-out: concentration in plasma of lercanidipine (S+R)
Structures can show the parent of a compound that is named as a salt.
endpoint: concentration at 1 h
Provide a numeric answer, followed by its unit.

Req: Fill in: concentration at 1 h of COC(=O)C1=C(C)NC(C)=C(C(=O)OC(C)(C)CN(C)CCC(c2ccccc2)c2ccccc2)C1c1cccc([N+](=O)[O-])c1 (single isomer, unassigned) [Form (II), lercanidipine hydrochloride] is ___
Resp: 3.28 ng/mL

* * *

Test: Bioavailability of crystalline Forms (I) and (II) in dogs
Type: in vivo, Beagle dogs
Conditions: dog, plasma, po, 3 mg/kg, Time 0.5 h, Dog 3, read-out: concentration in plasma of lercanidipine (S+R)
Procedure: A study was carried out on six Beagle dogs to evaluate the bioavailability of crystalline Forms (I) and (II). Blood samples were taken at given times and plasma concentrations of lercanidipine were determined with a stereoselective analytical method HPLC-MS/MS, according to the following working conditions; Lercanidipine was extracted from dog plasma by means of a liquid-liquid extraction with a mixture of n-hexane and ethyl ether. […]
Where a name gives a salt, the structure may show the parent alone.
endpoint: concentration at 0.5 h (ng/mL)
Your answer should be a plain number; it is taken to be in ng/mL.

Req: Consider the compound COC(=O)C1=C(C)NC(C)=C(C(=O)OC(C)(C)CN(C)CCC(c2ccccc2)c2ccccc2)C1c1cccc([N+](=O)[O-])c1 (single isomer, unassigned) [Form (II), lercanidipine hydrochloride] and give its measured concentration at 0.5 h.
Resp: 6.99

* * *

Test: Bioavailability of crystalline Forms (I) and (II) in dogs
Assay type: in vivo, Beagle dogs
Settings: dog, plasma, po, 3 mg/kg, Dog 4, read-out: Tmax
Structures can show the parent of a compound that is named as a salt.
endpoint: Tmax
Answer with the number, then the unit.

Req: If you can, please state the reported Tmax value of COC(=O)C1=C(C)NC(C)=C(C(=O)OC(C)(C)CN(C)CCC(c2ccccc2)c2ccccc2)C1c1cccc([N+](=O)[O-])c1 (single isomer, unassigned) [Form (I), lercanidipine hydrochloride] .
Resp: 3 h
